# testSystem: HCoV-NL63 Mpro (Human coronavirus NL63)
# Sequence (P0C6X5 2940-3242 limits assumed): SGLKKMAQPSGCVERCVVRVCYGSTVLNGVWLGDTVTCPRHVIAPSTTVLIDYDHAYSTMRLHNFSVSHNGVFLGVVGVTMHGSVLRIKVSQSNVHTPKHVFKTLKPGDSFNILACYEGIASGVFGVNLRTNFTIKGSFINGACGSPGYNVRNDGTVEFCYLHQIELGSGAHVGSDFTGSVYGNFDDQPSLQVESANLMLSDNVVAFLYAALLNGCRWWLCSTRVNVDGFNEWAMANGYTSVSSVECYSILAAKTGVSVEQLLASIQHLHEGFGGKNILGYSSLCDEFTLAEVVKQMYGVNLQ
# experiment: HCoV-NL63 Mpro enzymatic inhibition assay (fluorescence)
# Type: biochemical
IC50 values, listed per item
Lab note: write values as number then unit, every time.

molecule	reportedResult
O=C[C@H](C[C@@H]1CCNC1=O)NC(=O)[C@@H]1CC(F)(F)CN1C(=O)c1cc2ccccc2[nH]1 [Compound 115]	105 nM
CC1(C)[C@@H]2[C@@H](C(=O)N[C@H](C=O)C[C@@H]3CCNC3=O)N(C(=O)c3cc4c(F)ccc(F)c4[nH]3)C[C@@H]21 [Compound 13]	76.3 nM

Below: the item to evaluate.
Prompt: Quick one: IC50 for CC1(C)[C@@H]2[C@@H](C(=O)N[C@H](C#N)C[C@@H]3CCNC3=O)N(C(=O)C3(c4cccc(Cl)c4)CC3)C[C@@H]21 [Compound 123] ?
Response: 2110 nM

###

pIC50 values, listed per item
# testSystem: HCoV-OC43 Mpro (Human coronavirus OC43)
# Sequence (P0C6X6 3247-3549 limits assumed): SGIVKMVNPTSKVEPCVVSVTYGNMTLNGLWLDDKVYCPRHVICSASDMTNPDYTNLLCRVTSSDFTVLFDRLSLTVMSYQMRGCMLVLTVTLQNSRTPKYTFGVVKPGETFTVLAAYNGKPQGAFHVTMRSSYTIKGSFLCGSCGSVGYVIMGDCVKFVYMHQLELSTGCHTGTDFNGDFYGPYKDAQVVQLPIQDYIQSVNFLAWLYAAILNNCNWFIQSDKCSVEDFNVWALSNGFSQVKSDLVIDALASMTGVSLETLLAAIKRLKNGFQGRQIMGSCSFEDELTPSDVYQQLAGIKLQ
# experiment: HCoV-OC43 Mpro enzymatic inhibition assay (fluorescence)
# Format: biochemical
Recall that pIC50 is obtained by taking minus log10 of the concentration measured in molar.

Solved cases below.
smilesRepr	pIC50
CC1(C)[C@@H]2[C@@H](C(=O)N[C@H](C=O)C[C@@H]3CCNC3=O)N(C(=O)c3cc4cc(F)ccc4[nH]3)C[C@@H]21	7.22
O=C[C@H](C[C@@H]1CCNC1=O)NC(=O)[C@@H]1CC2(CCC2)CN1C(=O)c1cc2ccccc2[nH]1	7.45
CC1(C)[C@@H]2[C@@H](C(=O)N[C@H](C=O)C[C@@H]3CCNC3=O)N(C(=O)c3cc4cccc(C#N)c4[nH]3)C[C@@H]21	7.28

Prompt: Quick one: pIC50 for `CC1(C)[C@@H]2[C@@H](C(=O)N[C@H](C=O)C[C@@H]3CCNC3=O)N(C(=O)CC3CCC(F)(F)CC3)C[C@@H]21` ?
Response: 7.52

Prompt: Field entry: `Cc1ccc2[nH]c(C(=O)N3C[C@H]4[C@@H]([C@H]3C(=O)N[C@H](C=O)C[C@@H]3CCNC3=O)C4(C)C)cc2c1`
Response: 7.26

Prompt: Field entry: `CC1(C)[C@@H]2[C@@H](C(=O)N[C@H](C=O)C[C@@H]3CCNC3=O)N(C(=O)c3cc4c(F)ccc(F)c4[nH]3)C[C@@H]21`
Response: 7.16

###

# testSystem: HCoV-HKU1 Mpro (Human coronavirus HKU1, UniProt P0C6X2)
# Sequence (P0C6X2 3335-3637 limits assumed): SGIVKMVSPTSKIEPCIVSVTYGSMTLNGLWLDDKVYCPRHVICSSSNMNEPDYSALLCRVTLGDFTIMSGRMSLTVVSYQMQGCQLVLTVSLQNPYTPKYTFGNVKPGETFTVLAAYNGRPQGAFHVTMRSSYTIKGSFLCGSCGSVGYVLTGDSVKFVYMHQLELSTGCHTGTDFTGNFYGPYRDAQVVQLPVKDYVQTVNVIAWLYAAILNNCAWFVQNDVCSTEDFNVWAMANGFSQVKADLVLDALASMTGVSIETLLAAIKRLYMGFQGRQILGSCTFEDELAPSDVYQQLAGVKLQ
# experiment: HCoV-HKU1 Mpro enzymatic inhibition assay (fluorescence)
# Format: biochemical
quantity: IC50 (nM)
State the answer as a number, implicitly in nM.

smilesRepr	reportedResult
O=C[C@H](C[C@@H]1CCNC1=O)NC(=O)[C@@H]1C[C@@H]2CCCC[C@@H]2N1C(=O)c1cc2ccccc2[nH]1	28.4
COc1cccc2[nH]c(C(=O)N3CC4(CC4)C[C@H]3C(=O)N[C@H](C=O)C[C@@H]3CCNC3=O)cc12	14.2

Prompt: Quick one: IC50 for `CCc1cccc2[nH]c(C(=O)N3C[C@H]4[C@@H]([C@H]3C(=O)N[C@H](C=O)C[C@@H]3CCNC3=O)C4(C)C)cc12` ?
Response: 22.2

###

# testSystem: SARS-CoV-2 Mpro (Severe acute respiratory syndrome coronavirus 2, UniProt P0DTD1)
# experiment: SARS-CoV-2 Mpro enzymatic inhibition assay (fluorescence)
# Format: biochemical
pIC50 values, listed per item
Recall that pIC50 is obtained by taking minus log10 of the concentration measured in molar.

Solved cases below.
compound	pIC50
CC1(C)[C@@H]2[C@@H](C(=O)N[C@H](C=O)C[C@@H]3CCNC3=O)N(C(=O)c3cc4ccc(F)cc4[nH]3)C[C@@H]21	7.81
O=C[C@H](C[C@@H]1CCNC1=O)NC(=O)[C@@H]1C[C@@H](Cc2ccccc2Cl)CN1C(=O)c1cc2ccccc2[nH]1	7.09
CC1(C)[C@@H]2[C@@H](C(=O)N[C@H](C=O)C[C@@H]3CCCNC3=O)N(C(=O)c3cc4ccccc4[nH]3)C[C@@H]21	7.88
C=C1C[C@@H](C(=O)N[C@H](C=O)C[C@@H]2CCNC2=O)N(C(=O)c2cc3ccccc3[nH]2)C1	7.11
CC1CCC(CC(=O)N2C[C@H]3[C@@H]([C@H]2C(=O)N[C@H](C=O)C[C@@H]2CCNC2=O)C3(C)C)CC1 (stereo partly drawn)	7.61

Prompt: Quick one: pIC50 for `CC1(C)[C@@H]2[C@@H](C(=O)N[C@H](C=O)C[C@@H]3CCCNC3=O)N(C(=O)c3cc4cccc(Cl)c4[nH]3)C[C@@H]21` ?
Response: 7.78

###

IC50 values, listed per item
# testSystem: HCoV-HKU1 Mpro (Human coronavirus HKU1)
# experiment: HCoV-HKU1 Mpro enzymatic inhibition assay (fluorescence)
# Assay type: biochemical
Lab note: write values as number then unit, every time.

Solved cases below.
smilesRepr	reportedResult
CC1(C)[C@@H]2[C@@H](C(=O)N[C@H](C#N)C[C@@H]3CCNC3=O)N(C(=O)c3cc4c(F)ccc(Cl)c4[nH]3)C[C@@H]21	1900 nM
CC1(C)[C@@H]2[C@@H](C(=O)N[C@H](C=O)C[C@@H]3CCNC3=O)N(C(=O)c3cc4c(F)cc(F)cc4[nH]3)C[C@@H]21	16.4 nM
COc1cc2cc(C(=O)N3C[C@H]4[C@@H]([C@H]3C(=O)N[C@H](C=O)C[C@@H]3CCNC3=O)C4(C)C)[nH]c2cc1OC	30.6 nM

Prompt: Quick one: IC50 for `NC(=O)C(=O)[C@H](C[C@@H]1CCNC1=O)NC(=O)[C@@H]1CC2(CC2)CN1C(=O)c1cc2ccccc2[nH]1` ?
Response: 11.4 nM

Prompt: Field entry: `CC(C)c1cccc2[nH]c(C(=O)N3C[C@H]4[C@@H]([C@H]3C(=O)N[C@H](C=O)C[C@@H]3CCNC3=O)C4(C)C)cc12`
Response: 20.8 nM

Prompt: Field entry: `CC(C)(C)CC(=O)N1C[C@H]2[C@@H]([C@H]1C(=O)N[C@H](C=O)C[C@@H]1CCNC1=O)C2(C)C`
Response: 64.4 nM

###

# testSystem: MERS Mpro (Middle East respiratory syndrome-related coronavirus, UniProt K9N7C7)
# Sequence (K9N7C7 3248-3553 limits assumed): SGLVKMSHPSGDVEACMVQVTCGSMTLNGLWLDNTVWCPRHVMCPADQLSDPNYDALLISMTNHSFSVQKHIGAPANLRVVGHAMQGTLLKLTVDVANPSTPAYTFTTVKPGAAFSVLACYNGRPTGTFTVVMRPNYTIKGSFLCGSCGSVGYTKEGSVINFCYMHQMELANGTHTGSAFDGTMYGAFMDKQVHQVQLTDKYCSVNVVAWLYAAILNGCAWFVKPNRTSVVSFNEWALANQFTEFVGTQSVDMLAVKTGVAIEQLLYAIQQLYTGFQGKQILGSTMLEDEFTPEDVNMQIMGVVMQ
# experiment: biochemical
# Set-up: species or system MERS-CoV
Label T when IC50 is strictly below 400 nM; otherwise label F.

compound	categoryLabel
NC(=O)C(=O)[C@H](C[C@@H]1CCNC1=O)NC(=O)[C@@H]1CC2(CC2)CN1C(=O)c1cc2ccccc2[nH]1 [Compound 35]	T

Prompt: In the record for CC(C)c1ccc(F)c2[nH]c(C(=O)N3C[C@H]4[C@@H]([C@H]3C(=O)N[C@H](C=O)C[C@@H]3CCNC3=O)C4(C)C)cc12 [Compound 39] , is IC50 less than 400 nM?
Response: T

Prompt: Field entry: C[C@@H]1C[C@@H](C(=O)N[C@H](C=O)C[C@@H]2CCNC2=O)N(C(=O)c2cc3ccccc3[nH]2)C1 [Compound 107]
Response: F

Prompt: Field entry: C[C@@H](C(=O)N1C[C@H]2[C@@H]([C@H]1C(=O)N[C@H](C=O)C[C@@H]1CCNC1=O)C2(C)C)C1CCCCC1 [Compound 67]
Response: T

Prompt: Field entry: CC1(C)[C@@H]2[C@@H](C(=O)N[C@H](C=O)C[C@@H]3CCNC3=O)N(C(=O)c3cc4ccc(F)c(F)c4[nH]3)C[C@@H]21 [Compound 4]
Response: T

Prompt: Field entry: N#Cc1cccc2cc(C(=O)N3C[C@H](C4CCCCC4)C[C@H]3C(=O)N[C@H](C=O)C[C@@H]3CCNC3=O)[nH]c12 [Compound 75]
Response: F

###

# testSystem: UniProt:P0C6X5
# experiment: HCoV-NL63 Mpro enzymatic inhibition assay (fluorescence)
# Assay type: biochemical
quantity: pIC50
Recall that pIC50 is obtained by taking minus log10 of the concentration measured in molar.

Solved cases below.
smilesRepr	pIC50
O=C[C@H](C[C@@H]1CCNC1=O)NC(=O)[C@@H]1C[C@@H]2CCC[C@@H]2N1C(=O)c1cc2ccccc2[nH]1	7.29
Cc1ccc2cc(C(=O)N3C[C@H]4[C@@H]([C@H]3C(=O)N[C@H](C=O)C[C@@H]3CCNC3=O)C4(C)C)[nH]c2c1	7.66

Prompt: Quick one: pIC50 for `CC1(C)[C@@H]2[C@@H](C(=O)N[C@H](C=O)C[C@@H]3CCNC3=O)N(C(=O)CC3CCC(F)(F)CC3)C[C@@H]21` ?
Response: 7.54

Prompt: Field entry: `CC1(C)[C@@H]2[C@@H](C(=O)N[C@H](C=O)C[C@@H]3CCNC3=O)N(C(=O)c3cc4ccccc4[nH]3)C[C@@H]21`
Response: 7.27

Prompt: Field entry: `O=C[C@H](C[C@@H]1CCNC1=O)NC(=O)[C@@H]1[C@H]2C[C@H](F)[C@H](C2)N1C(=O)c1cc2ccccc2[nH]1`
Response: 6.81
